Origin of measurements: patent US20240116985A1

targetDesc: full-length beta-Catenin (Uniprot ID P35222) (Homo sapiens (Human)) (UniProt P35222)
assayComment: fluorescence polarization competition; peptide titrated against 10 nM full-length beta-catenin + 10 nM 5FAM-TCF4(10-53)
Starred links: 1 amine or outer side, 2 acyl side, 3 side chain; linkers in the order of their positions; H or OH if unused. Positions of bridges follow the written chain, without caps; N, C: chain ends. Non-standard residues stand in square brackets, D forms with d. Primed or numbered codes have the meaning given here. PyrS2″ = (S)-3-amino-1-((pent-4-en-1-yloxy)carbonyl)pyrrolidine-3-carboxylic acid (stapling residue), C=CCCCOC(=O)N1CC[C@@](N[*:1])(C(=O)[*:2])C1; B5(4) = 2,2-bis(4-pentenyl)glycine = 2-amino-2-(pent-4-en-1-yl)hept-6-enoic acid (stitching residue), C=CCCCC(CCCC=C)(N[*:1])C(=O)[*:2]; B5(5) = 2,2-bis(4-pentenyl)glycine, 2-amino-2-(pent-4-en-1-yl)hept-6-enoic acid (stitching residue), C=CCCCC(CCCC=C)(N[*:1])C(=O)[*:2]; TfeGA = (S)-2-amino-3-((carboxymethyl)(2,2,2-trifluoroethyl)amino)propanoic acid, O=C([C@H](CN(CC(=O)[*:3])CC(F)(F)F)N[*:1])[*:2]; PyrS2 = (S)-3-amino-1-((pent-4-en-1-yloxy)carbonyl)pyrrolidine-3-carboxylic acid, C=CCCCOC(=O)N1CC[C@@](N[*:1])(C(=O)[*:2])C1; B5(25) = 2-amino-2-(pent-4-en-1-yl)hept-6-enoic acid (stitching residue), C=CCCCC(CCCC=C)(N[*:1])C(=O)[*:2]; MorphAsn = (S)-2-amino-4-morpholino-4-oxobutanoic acid, O=C(C[C@H](N[*:1])C(=O)[*:2])N1CCOCC1; Phe(2-Cl) = N[C@@H](Cc1ccccc1Cl)C(=O)O; Bta = N[C@@H](Cc1csc2ccccc12)C(=O)O; αAllylPro = C=CC[C@@]1(C(=O)O)CCCN1; tBuAla = CC(C)(C)C[C@H](N)C(=O)O; 3Thi = N[C@@H](Cc1ccsc1)C(=O)O; Cha = N[C@@H](CC1CCCCC1)C(=O)O; Me2Npr = not defined here
Provide the recorded pIC50 for the entries that follow.
Give bare numbers, as −log10 of the molar value.

For every item below, please supply its pIC50.
1. Ac-[αAllylPro]N[Cha][B5(25)]DQK(Me2Npr)AFL[PyrS2]F[Bta][MorphAsn]-NH2 (staple 1-4, 4-11; reading uncertain; also: printed as Ac-PL3-Asn-Cha-B5-Asp-Gln-[Me2Npr]Lys-Ala-Phe-Leu-PyrS2-Phe-BztA-MorphAsn-NH2) [I-2528]
2. Ac-[αAllylPro]D[Cha][B5(4)]DEAAFL[PyrS2″][Phe(2-Cl)][Bta]Q-NH2 (staple 1-4, 4-11; also: earlier-eluting staple isomer composition) [I-1077]
3. Ac-[αAllylPro]D[tBuAla][B5(5)]DDAAFN[PyrS2″][3Thi]WQ-NH2 (staple 1-4, 4-11) [I-2175]
4. Ac-[αAllylPro]D[tBuAla][B5(4)]D[TfeGA]AAFL[PyrS2″][3Thi][Bta]T-NH2 (staple 1-4, 4-11; also: -CH=CH- in each staple reduced to -CH2-CH2-) [I-1716]

1: 6.21; 2: 6.49; 3: 7.72; 4: 6.65
